IC50 values for the compounds below.
System: HY926 cells
Assay: MTT cytotoxicity assay, HY926 (non-tumor)
Type: cell-based
Details: MTT, 72 h, mean ± SD (n = 3), non-tumor cells
Experimental: HepG2 (human hepatocellular carcinoma), Hela (human cervical cancer), HT-29 (human colon carcinoma), MDCK (Madin–Darby canine kidney), H9C2 (rat myocardial cells) and HY926 were purchased from the Chinese Academy of Medical Sciences and Peking Union Medical College. […] The cytotoxicity of these compounds was evaluated on three human cancer cell lines (HepG2, HT-29, Hela) and three non-tumor cells lines (MDCK, HY926, H9C2) and MTT assay was performed to detect the cell proliferation. […]

Known results for compounds:
# Compound, IC50
records = [
    ("CC1(C)[C@@H](O)CC[C@]2(C)[C@H]3C(=O)C=C4[C@@H]5C[C@@](C)(C(=O)O)CC[C@]5(C)CC[C@@]4(C)[C@]3(C)CC[C@@H]12 [GA, Glycyrrhetinic acid]", "> 100 µM"),
    ("COc1cccc(/C=C/C(=O)OC2CCC3(C)C(CCC4(C)C3C(=O)C=C3C5CC(C)(C(=O)O)CCC5(C)CCC34C)C2(C)C)c1 (stereo not drawn) [Compound 4a]", "31 µM"),
]

Now for a further compound.
Dear colleague, please send me the reported IC50 for COc1cccc(CCC(=O)OC2CCC3(C)C(CCC4(C)C3C(=O)C=C3C5CC(C)(C(=O)O)CCC5(C)CCC34C)C2(C)C)c1OC (stereo not drawn) [Compound 2b] when you can.
> 50 µM

----------
Test system: H9C2 cells
Assay: MTT cytotoxicity assay, H9C2 (non-tumor)
Assay type: cell-based, rat
Settings: Rattus norvegicus, H9c2; MTT, 72 h, mean ± SD (n = 3), non-tumor cells
pIC50: −log10 of the molar value.
Observed Property: pIC50

Give H9C2 cells pIC50 for the following compound: CC1(C)[C@@H](O)CC[C@]2(C)[C@H]3C(=O)C=C4[C@@H]5C[C@@](C)(C(=O)O)CC[C@]5(C)CC[C@@]4(C)[C@]3(C)CC[C@@H]12
< 4.00

----------
Tested on: HepG2 cells
Experiment: MTT cytotoxicity assay, HepG2
Format: cell-based, human
Settings: 72 h, mean ± SD (n = 3)
Observed Property: IC50 (µM)
Respond numerically; units are µM and should not be typed.

# Compound, IC50 [µM]
rows = [
    ("N.N.[Cl][Pt][Cl] [DPP, cisplatin, reference compound]", 4.57),
    ("CC1(C(=O)O)CCC2(C)CCC3(C)C(=CC(=O)C4C5(C)CCC(OC(=O)CCc6ccccc6)C(C)(C)C5CCC43C)C2C1 (centres unmarked)", 32.3),
    ("COc1cc(/C=C/C(=O)O[C@H]2CC[C@]3(C)[C@H]4C(=O)C=C5[C@@H]6C[C@@](C)(C(=O)O)CC[C@]6(C)CC[C@@]5(C)[C@]4(C)CC[C@H]3C2(C)C)cc(OC)c1OC", 21.9),
    ("Cc1ccc(/C=C/C(=O)OC2CCC3(C)C(CCC4(C)C3C(=O)C=C3C5CC(C)(C(=O)O)CCC5(C)CCC34C)C2(C)C)cc1 (centres unmarked)", 22.1),
    ("COc1ccc(C=CC(=O)OC2CCC3(C)C(CCC4(C)C3C(=O)C=C3C5CC(C)(C(=O)O)CCC5(C)CCC34C)C2(C)C)cc1 (centres unmarked)", 31.2),
]

Give HepG2 cells IC50 for the following compound: COc1ccc(OC)c(/C=C/C(=O)OC2CCC3(C)C(CCC4(C)C3C(=O)C=C3C5CC(C)(C(=O)O)CCC5(C)CCC34C)C2(C)C)c1 (centres unmarked)
25.4

Give HepG2 cells IC50 for the following compound: COc1ccc(CCC(=O)O[C@H]2CC[C@]3(C)[C@H]4C(=O)C=C5[C@@H]6C[C@@](C)(C(=O)O)CC[C@]6(C)CC[C@@]5(C)[C@]4(C)CC[C@H]3C2(C)C)c(OC)c1OC
27.3

Give HepG2 cells IC50 for the following compound: COc1ccc(/C=C/C(=O)OC2CCC3(C)C(CCC4(C)C3C(=O)C=C3C5CC(C)(C(=O)O)CCC5(C)CCC34C)C2(C)C)c(OC)c1OC (centres unmarked)
21.5

----------
Tested on: HT-29 cells
Experiment: MTT cytotoxicity assay, HT-29
Assay type: cell-based, human
Conditions: 72 h, mean ± SD (n = 3)
Observed Property: pIC50
pIC50 field: float, defined as -log10 of concentration (mol/L).

Dear colleague, please send me the reported pIC50 for Cc1ccc(/C=C/C(=O)OC2CCC3(C)C(CCC4(C)C3C(=O)C=C3C5CC(C)(C(=O)O)CCC5(C)CCC34C)C2(C)C)cc1 (centres unmarked) when you can.
4.66

Dear colleague, please send me the reported pIC50 for COc1cccc(CCC(=O)OC2CCC3(C)C(CCC4(C)C3C(=O)C=C3C5CC(C)(C(=O)O)CCC5(C)CCC34C)C2(C)C)c1OC (centres unmarked) when you can.
4.53

Dear colleague, please send me the reported pIC50 for CC1(C(=O)O)CCC2(C)CCC3(C)C(=CC(=O)C4C5(C)CCC(OC(=O)CCc6ccccc6)C(C)(C)C5CCC43C)C2C1 (centres unmarked) when you can.
4.54

Dear colleague, please send me the reported pIC50 for COc1ccc(/C=C/C(=O)OC2CCC3(C)C(CCC4(C)C3C(=O)C=C3C5CC(C)(C(=O)O)CCC5(C)CCC34C)C2(C)C)c(OC)c1OC (centres unmarked) when you can.
4.82

Dear colleague, please send me the reported pIC50 for COc1cc(/C=C/C(=O)O[C@H]2CC[C@]3(C)[C@H]4C(=O)C=C5[C@@H]6C[C@@](C)(C(=O)O)CC[C@]6(C)CC[C@@]5(C)[C@]4(C)CC[C@H]3C2(C)C)cc(OC)c1OC when you can.
4.59

Dear colleague, please send me the reported pIC50 for COc1ccc(C=CC(=O)OC2CCC3(C)C(CCC4(C)C3C(=O)C=C3C5CC(C)(C(=O)O)CCC5(C)CCC34C)C2(C)C)cc1 (centres unmarked) when you can.
4.48

Dear colleague, please send me the reported pIC50 for CC1(C)[C@@H](OC(=O)/C=C/c2ccccc2)CC[C@]2(C)[C@H]3C(=O)C=C4[C@@H]5C[C@@](C)(C(=O)O)CC[C@]5(C)CC[C@@]4(C)[C@]3(C)CC[C@@H]12 when you can.
4.65

Dear colleague, please send me the reported pIC50 for COc1cccc(/C=C/C(=O)OC2CCC3(C)C(CCC4(C)C3C(=O)C=C3C5CC(C)(C(=O)O)CCC5(C)CCC34C)C2(C)C)c1 (centres unmarked) when you can.
4.83

----------
System: HT-29 cells
Assay: MTT cytotoxicity assay, HT-29
Assay type: cell-based, human
Details: 72 h, mean ± SD (n = 3)
Flag rule - IC50 less than 20 µM flags t; the remaining entries get f.

# Compound, Assigned Class
rows = [
    ("COc1cc(CCC(=O)OC2CCC3(C)C(CCC4(C)C3C(=O)C=C3C5CC(C)(C(=O)O)CCC5(C)CCC34C)C2(C)C)cc(OC)c1OC (stereo not drawn) [Compound 4b]", "f"),
    ("COc1ccccc1/C=C/C(=O)OC1CCC2(C)C(CCC3(C)C2C(=O)C=C2C4CC(C)(C(=O)O)CCC4(C)CCC23C)C1(C)C (stereo not drawn) [Compound 3a]", "f"),
    ("COc1cccc(/C=C/C(=O)OC2CCC3(C)C(CCC4(C)C3C(=O)C=C3C5CC(C)(C(=O)O)CCC5(C)CCC34C)C2(C)C)c1OC (stereo not drawn) [Compound 6a]", "f"),
    ("N.N.[Cl][Pt][Cl] [DPP, cisplatin, reference compound]", "t"),
    ("COc1ccc(OC)c(/C=C/C(=O)OC2CCC3(C)C(CCC4(C)C3C(=O)C=C3C5CC(C)(C(=O)O)CCC5(C)CCC34C)C2(C)C)c1 (stereo not drawn) [Compound 7a]", "f"),
]

Moving on to the next compound.
Determine whether this compound shows IC50 lower than 20 µM (ties excluded): COc1ccc(CCC(=O)O[C@H]2CC[C@]3(C)[C@H]4C(=O)C=C5[C@@H]6C[C@@](C)(C(=O)O)CC[C@]6(C)CC[C@@]5(C)[C@]4(C)CC[C@H]3C2(C)C)c(OC)c1OC [Compound 3b]
f

----------
pIC50 values for the compounds below.
Test system: MDCK cells
Experiment: MTT cytotoxicity assay, MDCK (non-tumor)
Type: cell-based, canine
Conditions: MTT, 72 h, mean ± SD (n = 3), non-tumor cells
pIC50: −log10 of the molar value.

# Compound, Target System, pIC50
measured = [
    ("COc1ccc(CCC(=O)O[C@H]2CC[C@]3(C)[C@H]4C(=O)C=C5[C@@H]6C[C@@](C)(C(=O)O)CC[C@]6(C)CC[C@@]5(C)[C@]4(C)CC[C@H]3C2(C)C)c(OC)c1OC", "MDCK cells", "< 4.52"),
]

Dear colleague, please send me the reported pIC50 for COc1ccc(OC)c(/C=C/C(=O)OC2CCC3(C)C(CCC4(C)C3C(=O)C=C3C5CC(C)(C(=O)O)CCC5(C)CCC34C)C2(C)C)c1 (stereo not drawn) when you can.
< 4.30

Dear colleague, please send me the reported pIC50 for COc1cc(CCC(=O)OC2CCC3(C)C(CCC4(C)C3C(=O)C=C3C5CC(C)(C(=O)O)CCC5(C)CCC34C)C2(C)C)cc(OC)c1OC (stereo not drawn) when you can.
< 4.52
